The binders listed here are annotated with their Relative active concentrations (%).
systemTested: biotinylated anti-human CD3ε antibody (capture surface of Example 6)
protocolDescription: SPR Biacore T200; IgG 1 ug/ml over captured biotinylated anti-human CD3ε antibody, normalised to anti-human IgG surface and to the unstressed sample; sample stressed 14 d/37° C. pH 7.4
Your answer should be a plain number; it is taken to be in %.

Item P1AF1281 H1L1 anti-idiotypic IgG1 (antibody, V domains shown) VH: QVQLVQSGSELKKPGASVKVSCKASGYTVTDYSMNWVRQAPGQGLEWMGWINTETGEPRYTDDFKGRFVFSLDTSVSTAYLQISSLKAEDTAVYYCAREGDYDVFDYWGQGTLVTVSS VL: DIVMTQSPDSLAVSLGERATINCRASKSVSTSSYSYMHWYQQKPGQPPKLLIKYVSYLESGVPDRFSGSGSGTDFTLTISSLQAEDVAVYYCQHSREFPYTFGQGTKLEIK has what recorded Relative active concentrations (%)?
93

Dear colleague, I am looking for the recorded Relative active concentrations (%) of the following binder: P1AF1286 H3L3 anti-idiotypic IgG1 (antibody, V domains shown) VH: QVQLVQSGSELKKPGASVKVSCKASGYTVTDYSMNWVRQAPGQGLEWMGWINTETGEPRYTQGFKGRFVFSLDTSVSTAYLQISSLKAEDTAVYYCAREGDYDVFDYWGQGTLVTVSS VL: DIVMTQSPDSLAVSLGERATINCRASKSVSTSSYSYMHWYQQKPGQPPKLLIKYVSYLESGVPDRFSGSGSGTDFTLTISSLQAEDVAVYYCQQSREFPYTFGQGTKLEIK
87

Sample P1AF1285 H3L2 anti-idiotypic IgG1 (antibody, V domains shown) VH: QVQLVQSGSELKKPGASVKVSCKASGYTVTDYSMNWVRQAPGQGLEWMGWINTETGEPRYTQGFKGRFVFSLDTSVSTAYLQISSLKAEDTAVYYCAREGDYDVFDYWGQGTLVTVSS VL: DIVMTQSPDSLAVSLGERATINCKSSKSVSTSSYSYMHWYQQKPGQPPKLLIKYVSYLESGVPDRFSGSGSGTDFTLTISSLQAEDVAVYYCQHSREFPYTFGQGTKLEIK — what was its Relative active concentrations (%)?
94
